- System: BCWM.1 cells
- measurementDescription: [3H]-thymidine uptake proliferation assay
- Assay type: cell-based
- setupConditions: BCWM1; BCWM.1, 48 hours; read-out: IC50, inhibition of proliferation ([3H]-thymidine uptake)
resultType: IC50 (nM)
Please respond with the number in nM and leave the unit unwritten.

# input compound: C[C@@]12OC(=O)[C@]1([C@@H](O)[C@@H]1C=CCCC1)NC(=O)[C@@H]2CCCl [salinosporamide A] ; wanted: its IC50
15
